Measured GI50, listed per entry.
System: SNB-19
Test: NCI tumour cell line growth inhibition, 48 h
Active and inactive are the calls of the source. Cut-off read from the data, not from the text of the source: active = GI50 up to about 1.1 µM and inactive = higher.
reported-endpoint: GI50

- COc1cccc(NC(=O)C(C#N)=C(SC)SC)c1: 57 µM (inactive)
- O=C(CSc1nc2ccccc2c(=O)n1-c1ccccc1)N/N=C1\C(=O)Nc2ccc(F)cc21: 4.08 µM (inactive)
- C=CCOC(=O)N1c2ccc(O)cc2[C@@]23O[C@@]24[C@@H]1C#C/C=C\C#C[C@]3(O)C(=O)C[C@@H]4C: > 100 µM (inactive)
- O=S1(=O)c2cc(S(=O)(=O)n3ccnc3)ccc2NC2=NCCCN21: 78.5 µM (inactive)
- COC1CN(C)/C(=N\c2cccc3ccccc23)S1 (stereo not given): > 10 µM (inactive)
- COc1ccccc1-c1cc(=O)c2cc(C)c(C)c(C(=O)O)c2o1: > 100 µM (inactive)
- Brc1c(C#CCC2CCCCC2)ccc(C#CCC2CCCCC2)c1Br: > 100 µM (inactive)
- Cc1cc(O)c2c(=O)c3ccccc3[nH]c2c1: 38.5 µM (inactive)
- CO/C(=N\N=C\c1ccc(Cl)c(Cl)c1)c1ccncc1: > 10 µM (inactive)
- Cc1c(/N=N/c2ccccc2)c(-c2ccccc2)n(C2OC(CO)C(O)C(O)C2O)c(=S)c1C#N (stereo not given): 7.64 µM (inactive)

----------
Listed here: items and their measured GI50.
System: A549
Test: NCI tumour cell line growth inhibition, 48 h
Calls of active or inactive are those of the source. No stated cut-off is given here; in the data, active = GI50 up to about 1.1 µM and inactive = higher.
reported-endpoint: GI50

- CCc1nnc2sc(-c3ccc(-c4ccccc4[N+](=O)[O-])o3)nn12: 36.5 µM (inactive)
- CC1(C)CCC[C@@]2(C)C1C[C@H](O)[C@@]1(C)O[C@@](C)([C@H](O)CO)CCC21 (stereo partly specified): 36.2 µM (inactive)
- Cc1cc(S(=O)(=O)O)c(NC(=O)C(=O)C2C=CCS2(=O)=O)cc1Cl (stereo unspecified): > 100 µM (inactive)
- C=CCC1(O)c2cccc(O)c2C(=O)c2cccc(O)c21 (stereo unspecified): 15.8 µM (inactive)
- Nc1ccc(C(=O)CC(N)C(=O)O)cc1O (stereo unspecified): > 100 µM (inactive)
- COC(=O)c1cc(-c2ccc3ccccc3c2)nc(O)c1C#N: > 100 µM (inactive)
- Cc1cc(NS(=O)(=O)c2ccc(NC(=O)c3cccc4c(Nc5ccc(S(=O)(=O)N=C(N)N)cc5)c5ccccc5nc34)cc2)no1: > 100 µM (inactive)
- CSc1scc2c1/C(=N/NC(N)=O)CCC2: 78.3 µM (inactive)
- CC1=NC(C)(COC(=O)C2(C)NC(C)(CO)CO2)COC1=O (stereo unspecified): > 100 µM (inactive)
- CC12O[C@]3([C@H](C(=O)N4CCOC43C)[C@H]1Cl)[C@H]1O[C@H]12 (stereo partly specified): > 100 µM (inactive)
- Cc1ccc(S(=O)(=O)OC2CN3CCC2CC3)cc1 (stereo unspecified): > 100 µM (inactive)

----------
Test system: MCF7
Assay: NCI tumour cell line growth inhibition, 48 h
Calls of active or inactive are those of the source. Cut-off read from the data, not from the text of the source: active = GI50 up to about 1.1 µM and inactive = higher.
Outcome codes: true (1) (active), false (0) (inactive)

* Cc1ccc(S(=O)(=O)OC2CN3CCC2CC3)cc1 (stereo unspecified) | false (0)
* CC(=O)O[C@H]1C(=O)O[C@@H]2C[C@H]3C(C)=CC(=O)[C@@H](O)[C@]3(C)[C@H]3[C@@]4(O)OC[C@]32[C@@H]1[C@@H](C)[C@H]4O | true (1)
* COc1cc(OC)cc(OCc2ccc3nc(-c4ccccc4)c(Cl)nc3c2)c1 | false (0)
* COC(=O)CN1Cc2cc(C)cc(c2O)CN(CC(=O)OC)Cc2cc(C)cc(c2O)CN(CC(=O)OC)Cc2cc(C)cc(c2O)CN(CC(=O)OC)Cc2cc(C)cc(c2O)C1 | false (0)
* COCN1C(=O)[C@@H]2CCCN2C(=O)c2ccc(Cl)cc21 | false (0)
* O=C(O)c1ccc(N2C=[N+]3C(=Nc4ccccc43)C2)cc1 | false (0)
* O=C1Nc2cccc(Cl)c2/C1=C\c1c(-c2ccccc2)nc2n1CCS2 | false (0)
* CCCC1(N)CC(OC)OC(C)C1O (stereo unspecified) | false (0)
* CC1=NC(C)(COC(=O)C2(C)NC(C)(CO)CO2)COC1=O (stereo unspecified) | false (0)
* c1cncc(C2(c3cc4ccccc4[nH]3)COCO2)c1 (stereo unspecified) | false (0)
* COc1ccc(-c2c3c(nc4nc(SC)nc(SC)c24)CCCC3)cc1OC | false (0)
* S=C1N=C(Cl)/C(=C\c2ccco2)N1 | false (0)
* COc1ccc2nc(NC(=O)/C(C#N)=C/c3ccccc3)sc2c1 | false (0)
* O=CNc1ccccc1OCCOc1ccccc1NC=O | false (0)
* COc1ccc(/C=C(\Cl)c2ccc(OC)c(OC)c2)cc1OC | false (0)
* CC(=O)Oc1c(C)cc2c(c1C)C(C)(C)CN2C(=O)C(C)(C)C | false (0)
* CC12CC(C#N)(C#N)C(C#N)(CO1)C(=N)O2 (stereo unspecified) | false (0)
* Cn1c(COC(=O)NC2CCCCC2)c(COC(=O)NC2CCCCC2)c2ccc3cc(C=O)ccc3c21 | false (0)
* O=[N+]([O-])/C(C(Cl)=C(Cl)Cl)=C(/Sc1ccccc1)N1CCOCC1 | false (0)
* CCCS(=O)(=O)Nc1ccc(Nc2c3ccccc3nc3ccccc23)c(OC)c1 | true (1)
* COc1ccc(/N=N/c2c(C)c(C#N)c(=S)n(C3OC(CO)C(O)C(O)C3O)c2-c2ccccc2)cc1 (stereo unspecified) | false (0)
